Please respond with reported pest or weed control at 70 g/ha for every item in the list.
Test system: Key Grass and Sedge Weeds as well as Grass Crops
Assay: Post-Emergent Test II (Table 6)
Assay type: in vivo
Conditions: post-emergence, 336 h, DIGSA: crabgrass (Digitaria sanguinalis), 70 g ai/ha, 14 days after application, read-out: Visual Growth Reduction (%) 14 Days After Application DIGSA

[[record]]
record_smiles = "COC(=O)c1nc(-c2ccc(C(F)(F)F)c(F)c2C)c(F)c(N)c1Cl"
reported_measurement = "0 to 29%"

[[record]]
record_smiles = "Cc1c(-c2cc(N)c(Cl)c(C(=O)O)n2)ccc(F)c1F"
reported_measurement = "0 to 29%"

[[record]]
record_smiles = "COC(=O)c1nc(-c2ccc(Cl)c(F)c2SC)cc(N)c1Cl"
reported_measurement = "0 to 29%"

[[record]]
record_smiles = "COC(=O)c1nc(-c2ccc(Cl)nc2F)nc(N)c1Cl"
reported_measurement = "0 to 29%"


Provide reported pest or weed control at 70 g/ha for each item, in the same order as listed.
1. COC(=O)c1nc(-c2ccc(C(F)(F)F)nc2)nc(N)c1OC
2. C=Cc1c(-c2cc(N)c(Cl)c(C(=O)O)n2)ccc(Cl)c1F
3. COC(=O)c1nc(-c2ccc(Br)nc2)c(F)c(N)c1Cl
4. COC(=O)c1nc(-c2ccc(C(F)(F)F)nc2OC)c(F)c(N)c1Cl
5. COC(=O)c1nc(-c2ccc(OC(F)F)nc2)c(F)c(N)c1Cl

Given back:
["30 to 44%", "30 to 44%", "85 to 94%", "0 to 29%", "75 to 84%"]

---

System: Key Grass and Sedge Weeds as well as Grass Crops
Experiment: Post-Emergent Test II (Table 6)
Type: in vivo
Settings: post-emergence, 336 h, DIGSA: crabgrass (Digitaria sanguinalis), 70 g ai/ha, 14 days after application, read-out: Visual Growth Reduction (%) 14 Days After Application DIGSA
quantity: pest or weed control at 70 g/ha

[[record]]
record_smiles = "COc1nc(C(F)(F)F)ccc1-c1cc(N)c(Cl)c(C(=O)O)n1"
quantity = "pest or weed control at 70 g/ha"
reported_measurement = "0 to 29%"

[[record]]
record_smiles = "Cc1c(-c2cc(N)c(Cl)c(C(=O)O)n2)ccc(C(F)(F)F)c1F"
quantity = "pest or weed control at 70 g/ha"
reported_measurement = "0 to 29%"

[[record]]
record_smiles = "COC(=O)c1nc(-c2ccc(Cl)c(OC)c2C(F)F)cc(N)c1Cl"
quantity = "pest or weed control at 70 g/ha"
reported_measurement = "0 to 29%"

[[record]]
record_smiles = "COC(=O)c1nc(-c2ccc(C(F)(F)F)nc2)c(C)c(N)c1Cl"
quantity = "pest or weed control at 70 g/ha"
reported_measurement = "75 to 84%"


Would you kindly look at the next entry?
Please fill in: pest or weed control at 70 g/ha reported for "COC(=O)c1nc(-c2ccc(Cl)c(Cl)c2Cl)c(F)c(N)c1Cl" = 30 to 44%

---

System: Key Broadleaf Weed and Crop Species
Test: Post-Emergent Test II (Table 5)
Assay type: in vivo
Conditions: Helianthus annuus, post-emergence, 336 h, HELAN: sunflower (Helianthus annuus), application rate 70 (kg ai/ha; footnote: g ai/ha), read-out: Visual Growth Reduction (%) 14 Days After Application HELAN
Please provide measured pest or weed control at 70 g/ha for the entries that follow.

[[record]]
record_smiles = "Nc1cc(-c2ccc(Cl)c(Cl)c2Cl)nc(C(=O)O)c1Cl"
system = "Key Broadleaf Weed and Crop Species"
quantity = "pest or weed control at 70 g/ha"
reported_measurement = "60 to 74%"

[[record]]
record_smiles = "COC(=O)c1nc(-c2ccc(OC)nc2Cl)c(F)c(N)c1Cl"
system = "Key Broadleaf Weed and Crop Species"
quantity = "pest or weed control at 70 g/ha"
reported_measurement = "75 to 84%"

[[record]]
record_smiles = "COC(=O)c1nc(-c2ccc(Cl)c(F)c2SC)cc(N)c1Cl"
system = "Key Broadleaf Weed and Crop Species"
quantity = "pest or weed control at 70 g/ha"
reported_measurement = "0 to 29%"

[[record]]
record_smiles = "COc1ccc(-c2nc(C(=O)O)c(Cl)c(N)c2F)cn1"
system = "Key Broadleaf Weed and Crop Species"
quantity = "pest or weed control at 70 g/ha"
reported_measurement = "95 to 100%"

[[record]]
record_smiles = "Cc1c(-c2nc(C(=O)O)c(Cl)c(N)c2F)ccc(C(F)(F)F)c1F"
system = "Key Broadleaf Weed and Crop Species"
quantity = "pest or weed control at 70 g/ha"
reported_measurement = "85 to 94%"

[[record]]
record_smiles = "Nc1c(F)c(-c2ccc(C(F)(F)F)nc2)nc(C(=O)O)c1Cl"
system = "Key Broadleaf Weed and Crop Species"
quantity = "pest or weed control at 70 g/ha"
reported_measurement = "95 to 100%"

[[record]]
record_smiles = "COC(=O)c1nc(-c2ccc(Cl)c(F)c2C)c(Cl)c(N)c1Cl"
system = "Key Broadleaf Weed and Crop Species"
quantity = "pest or weed control at 70 g/ha"
reported_measurement = "75 to 84%"

[[record]]
record_smiles = "COC(=O)c1nc(-c2ccc(Cl)nc2F)c(F)c(N)c1Cl"
system = "Key Broadleaf Weed and Crop Species"
quantity = "pest or weed control at 70 g/ha"
reported_measurement = "95 to 100%"

[[record]]
record_smiles = "Cc1c(-c2cc(N)c(Cl)c(C(=O)O)n2)ccc(F)c1F"
system = "Key Broadleaf Weed and Crop Species"
quantity = "pest or weed control at 70 g/ha"
reported_measurement = "85 to 94%"

[[record]]
record_smiles = "COC(=O)c1nc(-c2ccc(C)nc2)c(F)c(N)c1Cl"
system = "Key Broadleaf Weed and Crop Species"
quantity = "pest or weed control at 70 g/ha"
reported_measurement = "95 to 100%"


Batch lookup, pest or weed control at 70 g/ha per entry.
1. COC(=O)c1nc(-c2ccc(Cl)c(F)c2C)c(F)c(N)c1Cl
2. COC(=O)c1nc(-c2ccc(F)nc2)c(F)c(N)c1Cl

Given back:
["95 to 100%", "85 to 94%"]

---

System: Key Grass and Sedge Weeds as well as Grass Crops
Experiment: Post-Emergent Test II (Table 6)
Type: in vivo
Settings: post-emergence, 336 h, CYPSS, 70 g ai/ha, 14 days after application, read-out: Visual Growth Reduction (%) 14 Days After Application CYPSS
Give measured pest or weed control at 70 g/ha for each item. Keep answers brief.

Consider the worked cases shown below.
[[record]]
molecule = "Cc1ccc(-c2nc(C(=O)O)c(Cl)c(N)c2F)cn1 [Compound 85]"
system = "Key Grass and Sedge Weeds as well as Grass Crops"
reported_measurement = "0 to 29%"

[[record]]
molecule = "COC(=O)c1nc(-c2ccc(F)c(F)c2C)cc(N)c1Cl [Compound 69]"
system = "Key Grass and Sedge Weeds as well as Grass Crops"
reported_measurement = "45 to 59%"

[[record]]
molecule = "COC(=O)c1nc(-c2ccc(C(F)(F)F)nc2)c(C)c(N)c1Cl [Compound 32]"
system = "Key Grass and Sedge Weeds as well as Grass Crops"
reported_measurement = "95 to 100%"

[[record]]
molecule = "COC(=O)c1nc(-c2ccc(C(F)(F)F)nc2C)c(F)c(N)c1Cl [Compound 35]"
system = "Key Grass and Sedge Weeds as well as Grass Crops"
reported_measurement = "0 to 29%"

[[record]]
molecule = "COC(=O)c1nc(-c2c(F)cc(Cl)c(F)c2C)cc(N)c1Cl [Compound 38]"
system = "Key Grass and Sedge Weeds as well as Grass Crops"
reported_measurement = "0 to 29%"

[[record]]
molecule = "COC(=O)c1nc(-c2ccc(C(F)(F)F)nc2F)cc(N)c1Cl [Compound 74]"
system = "Key Grass and Sedge Weeds as well as Grass Crops"
reported_measurement = "0 to 29%"

[[record]]
molecule = "COC(=O)c1nc(-c2ccc(C)nc2)c(F)c(N)c1Cl [Compound 90]"
system = "Key Grass and Sedge Weeds as well as Grass Crops"
reported_measurement = "0 to 29%"

[[record]]
molecule = "COC(=O)c1nc(-c2ccc(I)c(F)c2C)cc(N)c1Cl [Compound 25]"
system = "Key Grass and Sedge Weeds as well as Grass Crops"
reported_measurement = "0 to 29%"


Form: molecule = COc1nc(C(F)(F)F)ccc1-c1cc(N)c(Cl)c(C(=O)O)n1 [Compound 65] ; pest or weed control at 70 g/ha = 0 to 29%

---

Please go through the items and note down their melting point.

[[record]]
molecule = "Nc1c(Cl)c(C(=O)O)nc(-c2ccc(C(F)(F)F)nc2)c1Cl [Compound 33]"
quantity = "melting point"
reported_measurement = "155 to 158 °C"


Look at each molecule and report its melting point.
1. Cc1c(-c2cc(N)c(Cl)c(C(=O)O)n2)ccc(Cl)c1F [Compound 52]
2. COC(=O)c1nc(-c2ccc(C(F)(F)F)nc2)c(F)c(N)c1Cl [Compound 59]

Given back:
1. 160 to 162 °C
2. 137 °C

Batch lookup, melting point per entry.
1. CCc1c(-c2cc(N)c(Cl)c(C(=O)O)n2)ccc(Cl)c1F [Compound 86]
2. COC(=O)c1nc(-c2ccc(C(F)(F)F)nc2F)nc(N)c1Cl [Compound 47]

Given back:
1. 144 to 146 °C
2. 150 to 153 °C
